Taken from paper PMC3689638.

System: native leukemia blasts
EXPERIMENTAL DETAILS: Annexin V/PI apoptosis assay, native leukemia blasts treated ex vivo
Format: cell-based
CONDITION LABEL: Homo sapiens, Pt. Nr. 290, ex vivo
pIC50: −log10 of the molar value.
RECORDED METRIC: pIC50

# COMPOUND STRUCTURE STRING, NUMERIC RESULT
records = [
    ("COc1ccc(-c2ccc3ncc4c(c3c2)n(-c2ccc(N3CCNCC3)c(C(F)(F)F)c2)c(=O)n4C)cn1", 8.40),
    ("Cn1c(=O)n(-c2ccc(C(C)(C)C#N)cc2)c2c3cc(-c4cnc5ccccc5c4)ccc3ncc21", 7.15),
]

----------
EXPERIMENTAL DETAILS: Inhibition of proliferation (XTT), isogenic Ba/F3 model
Type: cell-based, murine
CONDITION LABEL: mouse, Ba/F3 parental cells (with IL3); Ba/F3 Parental (w/ IL3); 100 nM; read-out: Inhibition of proliferation At 100 nM (% alive)

# COMPOUND STRUCTURE STRING, viability at 0.1 µM, %
records = [
    ("Cn1c(=O)n(-c2ccc(C(C)(C)C#N)cc2)c2c3cc(-c4cnc5ccccc5c4)ccc3ncc21", 98),
    ("COc1ccc(-c2ccc3ncc4c(c3c2)n(-c2ccc(N3CCNCC3)c(C(F)(F)F)c2)c(=O)n4C)cn1", 86),
]

----------
System: Ba/F3 BCR/ABL1
EXPERIMENTAL DETAILS: Induction of apoptosis, isogenic Ba/F3 model
Format: cell-based, murine
CONDITION LABEL: Mus musculus, BaF3, not reached = > 5 000 nM
Experimental: Translocation of phosphatidylserine from the inner to the outer leaflet of the plasma membrane as an early indicator of apoptosis was analyzed using an Annexin V-based assay (Immunotech, Marseilles, France) and a FACScalibur® flow cytometer loaded with CellQuest® analysis software (BD, Heidelberg, Germany).
pIC50: −log10 of the molar value.

# COMPOUND STRUCTURE STRING, pIC50
records = [
    ("COc1ccc(-c2ccc3ncc4c(c3c2)n(-c2ccc(N3CCNCC3)c(C(F)(F)F)c2)c(=O)n4C)cn1", 6.58),
]

----------
Listing: IC50 of selected compounds
Test system: Jurkat cells
EXPERIMENTAL DETAILS: XTT-based cellular proliferation assay, Jurkat
Assay type: cell-based
CONDITION LABEL: Homo sapiens, read-out: IC50 cellular proliferation (linear regression analysis)

# COMPOUND STRUCTURE STRING, IC50 / nM
rows = [
    ("Cn1c(=O)n(-c2ccc(C(C)(C)C#N)cc2)c2c3cc(-c4cnc5ccccc5c4)ccc3ncc21", 50),
    ("COc1ccc(-c2ccc3ncc4c(c3c2)n(-c2ccc(N3CCNCC3)c(C(F)(F)F)c2)c(=O)n4C)cn1", 59),
]

----------
Tested on: native leukemia blasts
EXPERIMENTAL DETAILS: Annexin V/PI apoptosis assay, native leukemia blasts treated ex vivo
Type: cell-based
CONDITION LABEL: Homo sapiens, Pt. Nr. 368, ex vivo
RECORDED METRIC: IC50 (µM)

# COMPOUND STRUCTURE STRING, ASSAYED TARGET, MEASUREMENT UNIT, NUMERIC RESULT
data = [
    ("COc1ccc(-c2ccc3ncc4c(c3c2)n(-c2ccc(N3CCNCC3)c(C(F)(F)F)c2)c(=O)n4C)cn1", "native leukemia blasts", "µM", 0.149),
    ("Cn1c(=O)n(-c2ccc(C(C)(C)C#N)cc2)c2c3cc(-c4cnc5ccccc5c4)ccc3ncc21", "native leukemia blasts", "µM", 3.18),
]

----------
Test system: Ba/F3 FLT3 ITD
EXPERIMENTAL DETAILS: Inhibition of proliferation (XTT), isogenic Ba/F3 model
Type: cell-based, murine
pIC50: −log10 of the molar value.

# COMPOUND STRUCTURE STRING, pIC50
measured = [
    ("Cn1c(=O)n(-c2ccc(C(C)(C)C#N)cc2)c2c3cc(-c4cnc5ccccc5c4)ccc3ncc21", 8.15),
]

----------
EXPERIMENTAL DETAILS: Inhibition of proliferation (XTT), isogenic Ba/F3 model
Type: cell-based, murine
CONDITION LABEL: mouse, Ba/F3 parental cells (with IL3); Ba/F3 Parental (w/ IL3); 10 nM; read-out: Inhibition of proliferation At 10 nM (% alive)

# COMPOUND STRUCTURE STRING, viability at 0.01 µM [%]
records = [
    ("COc1ccc(-c2ccc3ncc4c(c3c2)n(-c2ccc(N3CCNCC3)c(C(F)(F)F)c2)c(=O)n4C)cn1", 100),
    ("Cn1c(=O)n(-c2ccc(C(C)(C)C#N)cc2)c2c3cc(-c4cnc5ccccc5c4)ccc3ncc21", 89),
]

----------
Tested on: Ba/F3 KIT D816F
EXPERIMENTAL DETAILS: Induction of apoptosis, isogenic Ba/F3 model
Assay type: cell-based, murine
CONDITION LABEL: Mus musculus, BaF3
pIC50: −log10 of the molar value.
Listing: pIC50 of selected compounds
RECORDED METRIC: pIC50

# COMPOUND, RECORDED METRIC, NUMERIC RESULT
records = [
    ("Cn1c(=O)n(-c2ccc(C(C)(C)C#N)cc2)c2c3cc(-c4cnc5ccccc5c4)ccc3ncc21 [NVP-BEZ235]", "pIC50", 5.91),
    ("COc1ccc(-c2ccc3ncc4c(c3c2)n(-c2ccc(N3CCNCC3)c(C(F)(F)F)c2)c(=O)n4C)cn1 [NVP-BGT226]", "pIC50", 6.59),
]

----------
Test system: native leukemia blasts
EXPERIMENTAL DETAILS: Annexin V/PI apoptosis assay, native leukemia blasts treated ex vivo
Type: cell-based
CONDITION LABEL: Homo sapiens, Pt. Nr. 528, ex vivo
pIC50: −log10 of the molar value.
RECORDED METRIC: pIC50

# COMPOUND, NUMERIC RESULT
data = [
    ("COc1ccc(-c2ccc3ncc4c(c3c2)n(-c2ccc(N3CCNCC3)c(C(F)(F)F)c2)c(=O)n4C)cn1 [NVP-BGT226]", 7.92),
    ("Cn1c(=O)n(-c2ccc(C(C)(C)C#N)cc2)c2c3cc(-c4cnc5ccccc5c4)ccc3ncc21 [NVP-BEZ235]", 6.43),
]

----------
System: Ba/F3 FLT3 K663Q
EXPERIMENTAL DETAILS: Induction of apoptosis, isogenic Ba/F3 model
Type: cell-based, murine
CONDITION LABEL: Mus musculus, BaF3, not reached = > 5 000 nM
pIC50: −log10 of the molar value.
RECORDED METRIC: pIC50

# COMPOUND STRUCTURE STRING, NUMERIC RESULT
rows = [
    ("COc1ccc(-c2ccc3ncc4c(c3c2)n(-c2ccc(N3CCNCC3)c(C(F)(F)F)c2)c(=O)n4C)cn1", 5.95),
]
